biological target: HLA-DRB1*04:05 protein (human); assay: FP
Where no end group is shown, it is not given here. [ ]: non-standard residue; d: D form. Cit = NC(=O)NCCC[C@H](N)C(=O)O
MEASUREMENT_LABEL: IC50 (µM)

INSERT INTO measurements (binder, assay_result) VALUES
  ('D[Cit]Y[Cit]LNYSLPTG [TNC1014,1016cit peptide]', 4.81);
